Cited source: ChEMBL document CHEMBL1201862

# System: Malme-3M
# Test Method Notes: NCI tumour cell line growth inhibition, 48 h
The source made the active and inactive calls. Cut-off read from the data, not from the text of the source: active = GI50 up to about 1.1 µM and inactive = higher.
As shown below, each of these molecules has a reported GI50 value.
Observation Type: GI50

> print(dat)
                                    molecule  observation.type  experimental.result
 1       CCOC(=O)c1cn(CC)c2cc3c(cc2c1=O)SCS3              GI50  > 100 µM (inactive)
 2  Cc1cn(C2CC(N)C(CN)O2)c(=O)[nH]c1=O (configuration not stated)              GI50  > 100 µM (inactive)
 3    Cc1cc(Cl)ccc1NC(=O)C(=O)Cc1occc(=O)c1O              GI50  > 100 µM (inactive)
 4  O=C(Nc1nc2ncn(CCOC(=O)c3ccccc3)c2c(=S)[nH]1)c1ccccc1              GI50   42.5 µM (inactive)
 5          CC1=NOC(=O)/C1=C/c1ccc2c(c1)OCO2              GI50   43.6 µM (inactive)
 6  CCC1CN2CCc3c([nH]c4ccccc34)C2C[C@@H]1CC(=O)N(C)C (some centres not stated)              GI50  > 100 µM (inactive)
 7     O=C(O)CNS(=O)(=O)c1ccc(NCc2ccccc2)cc1              GI50  > 100 µM (inactive)
 8                 OCCN(CCO)c1ncnc2[nH]cnc12              GI50  > 100 µM (inactive)
 9  C#CCN(N=O)C(=O)NC(CCCCNC(=O)OCc1ccccc1)C(=O)OCc1ccccc1 (configuration not stated)              GI50   28.2 µM (inactive)
10                 CN(NC(=O)c1ccco1)C1=NCCN1              GI50  > 100 µM (inactive)
11                  Cn1nnc2c(C(N)=S)ncn2c1=O              GI50  > 100 µM (inactive)
12  NNC(=O)/C(NC(=O)c1ccccc1)=C(\N)c1cccc([N+](=O)[O-])c1              GI50  > 100 µM (inactive)
